# study_target: his-labeled human IL-13 (immunogen A) (human) (UniProt P35225)
# assay_notes: FACS blocking, biotin-IL-13 on IL-13Ra2 HEK293 cells; antibody at 0.05 nM
Answer each item with its documented mean fluorescence intensity.
Numbers only.

Completed entries (count: 2):
| binder | mean fluorescence intensity |
| --- | --- |
| 70F10A10 (lead antibody, mouse hybridoma) (antibody, V domains shown) VH: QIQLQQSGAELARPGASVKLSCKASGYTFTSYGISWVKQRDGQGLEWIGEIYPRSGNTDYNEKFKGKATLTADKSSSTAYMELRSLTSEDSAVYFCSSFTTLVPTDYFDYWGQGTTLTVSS VL: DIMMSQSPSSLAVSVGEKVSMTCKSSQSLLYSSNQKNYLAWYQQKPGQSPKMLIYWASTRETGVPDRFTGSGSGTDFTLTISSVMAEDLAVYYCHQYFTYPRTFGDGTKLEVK | 70.8 |
| 35E2C3 (lead antibody, mouse hybridoma) (antibody, V domains shown, Mouse monoclonal antibody purified from hybridoma supernatant on Protein G) VH: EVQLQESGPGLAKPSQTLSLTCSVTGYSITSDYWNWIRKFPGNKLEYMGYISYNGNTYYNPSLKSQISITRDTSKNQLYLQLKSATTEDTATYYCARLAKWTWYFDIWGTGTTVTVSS VL: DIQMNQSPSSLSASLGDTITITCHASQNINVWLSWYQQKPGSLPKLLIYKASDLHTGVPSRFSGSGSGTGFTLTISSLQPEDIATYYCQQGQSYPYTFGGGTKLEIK | 66.6 |

We next turn to a different binder, shown below.
Given item c35E2C3 (mouse-human chimeric IL-13 antibody) (antibody, V domains shown) VH: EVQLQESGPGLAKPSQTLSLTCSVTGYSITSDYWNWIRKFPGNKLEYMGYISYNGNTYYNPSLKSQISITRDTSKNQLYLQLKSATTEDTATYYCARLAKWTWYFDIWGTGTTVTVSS VL: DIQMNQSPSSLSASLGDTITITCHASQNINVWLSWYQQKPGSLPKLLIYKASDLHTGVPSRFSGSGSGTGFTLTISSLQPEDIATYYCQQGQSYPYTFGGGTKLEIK , the value recorded as its mean fluorescence intensity is 90
